- ASSAYED_TARGET: Sh-IR internal TEA binding site (Drosophila melanogaster, UniProt P08510, DEL6-46)
- Sequence (P08510 with tags, fused parts or gaps DEL6-46): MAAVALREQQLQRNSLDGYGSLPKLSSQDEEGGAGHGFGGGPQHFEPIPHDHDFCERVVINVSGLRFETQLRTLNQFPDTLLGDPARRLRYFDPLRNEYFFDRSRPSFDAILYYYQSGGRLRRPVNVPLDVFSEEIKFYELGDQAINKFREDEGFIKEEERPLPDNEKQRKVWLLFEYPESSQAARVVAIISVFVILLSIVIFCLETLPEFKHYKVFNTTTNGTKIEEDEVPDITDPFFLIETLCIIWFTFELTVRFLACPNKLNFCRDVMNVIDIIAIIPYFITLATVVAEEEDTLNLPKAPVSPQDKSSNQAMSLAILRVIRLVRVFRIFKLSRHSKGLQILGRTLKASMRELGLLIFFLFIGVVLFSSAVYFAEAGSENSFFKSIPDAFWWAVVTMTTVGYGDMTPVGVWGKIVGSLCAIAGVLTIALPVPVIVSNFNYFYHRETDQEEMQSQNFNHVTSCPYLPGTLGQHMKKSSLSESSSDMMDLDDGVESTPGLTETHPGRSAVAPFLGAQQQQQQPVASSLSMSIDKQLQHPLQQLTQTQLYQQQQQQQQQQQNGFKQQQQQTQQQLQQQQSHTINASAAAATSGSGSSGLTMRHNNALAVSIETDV
- ASSAY: Inside-out patches from HEK293 cells expressing Sh-IR, dose-response under 380 and 500 nm light
- ASSAY_CONTEXT: inside-out patch, 380 nm light, n=3-5; read-out: IC50 (cis isomer)
MEASURED_ENDPOINT: IC50

Exercise: Output measured IC50 for this item: "C=CC(=O)Nc1ccc(/N=N/c2ccc(NC(=O)C[N+](CC)(CC)CC)cc2)cc1"
Solution: 64 µM
